target: human ether-à-go-go-related gene (hERG) potassium channel (human); assay: primary screen, population patch clamp on CHO cells stably expressing hERG; higher = less effect of the substance;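 further: peak tail current of the secondary pulse compared with the same well before compound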
Sequence (Q12809 whole entry, looked up): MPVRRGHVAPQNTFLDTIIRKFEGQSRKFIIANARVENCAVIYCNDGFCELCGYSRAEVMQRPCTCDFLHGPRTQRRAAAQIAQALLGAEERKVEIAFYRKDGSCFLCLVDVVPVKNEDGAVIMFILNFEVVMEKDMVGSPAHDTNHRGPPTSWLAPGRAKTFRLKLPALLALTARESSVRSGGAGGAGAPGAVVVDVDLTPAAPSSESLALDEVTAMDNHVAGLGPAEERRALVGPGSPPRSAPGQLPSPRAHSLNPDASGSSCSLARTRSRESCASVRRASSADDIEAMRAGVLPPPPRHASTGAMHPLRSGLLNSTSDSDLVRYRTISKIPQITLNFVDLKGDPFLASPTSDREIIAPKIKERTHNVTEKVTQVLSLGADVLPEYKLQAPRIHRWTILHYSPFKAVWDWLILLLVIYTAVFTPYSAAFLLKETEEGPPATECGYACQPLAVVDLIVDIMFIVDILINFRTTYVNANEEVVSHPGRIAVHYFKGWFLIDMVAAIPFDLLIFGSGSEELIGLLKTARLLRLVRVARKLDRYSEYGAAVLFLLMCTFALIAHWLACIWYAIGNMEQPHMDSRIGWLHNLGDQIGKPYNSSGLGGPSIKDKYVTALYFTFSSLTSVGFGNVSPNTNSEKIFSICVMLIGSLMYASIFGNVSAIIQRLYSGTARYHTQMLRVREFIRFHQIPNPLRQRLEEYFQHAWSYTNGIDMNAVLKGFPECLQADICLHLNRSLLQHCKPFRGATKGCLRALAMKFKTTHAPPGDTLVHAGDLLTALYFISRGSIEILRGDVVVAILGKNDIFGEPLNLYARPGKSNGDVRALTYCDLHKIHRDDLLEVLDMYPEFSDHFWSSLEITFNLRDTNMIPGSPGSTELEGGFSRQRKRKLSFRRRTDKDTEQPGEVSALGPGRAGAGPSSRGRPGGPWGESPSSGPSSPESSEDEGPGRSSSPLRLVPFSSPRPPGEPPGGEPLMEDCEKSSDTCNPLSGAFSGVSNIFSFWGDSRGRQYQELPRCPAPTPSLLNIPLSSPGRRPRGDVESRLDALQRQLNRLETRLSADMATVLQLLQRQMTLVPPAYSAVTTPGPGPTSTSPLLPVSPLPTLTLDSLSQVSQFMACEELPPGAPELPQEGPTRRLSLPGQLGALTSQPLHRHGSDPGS
Screen size: about 310,000 compounds; about 14,000 (4.5%) showed an effect of 50% or more. The effect is printed as a negative number. What follows is part of a selection rich in strong results, with near analogues and random picks from the rest.
METRIC: hERG current change (%, negative = inhibition) at 10uM (%)
Supply the numeric figure in %, leaving out any unit text.

Examples with answers:
COMPOUND: CCOC(=O)N1CCC(NC(=O)c2cccc3c2C(=O)N(Cc2cccnc2)C3)CC1
VAL: -13.9

COMPOUND: COc1ccccc1CN1CCCCC1C(=O)O (stereo not shown)
VAL: 9.48

COMPOUND: COc1ccc(NC(=O)Cn2nnc3ccccc32)c([N+](=O)[O-])c1
VAL: 9.14

COMPOUND: COc1ccc(NC(=S)N(CCCN2CCC(C)CC2)Cc2cccs2)cc1Cl
VAL: -73.1

COMPOUND: COC(=O)Nc1ccc(S(=O)(=O)N2CCCc3ccccc32)cc1
VAL: 8.63

Ask: Looking for the measured hERG current change (%, negative = inhibition) at 10uM of COc1ccc2[nH]c3c(c2c1)CCN1C(=O)N([C@@H](C)C(=O)NCc2ccco2)C(=O)[C@]31C , can you help?
Result: -53.8
